Reported GI50 by item:
Tested on: K562
ASSAY_INFO: NCI tumour cell line growth inhibition, 48 h
Activity calls are given as the source filed them. Cut-off read from the data, not from the text of the source: active = GI50 up to about 1.1 µM and inactive = higher.
RECORDED_METRIC: GI50

molecule=CCOC(=O)/C=C(/C(=O)OCC)n1cnc2c(=O)[nH]c(NC(C)=O)nc21 recorded_metric=GI50 recorded_measurement="> 100 µM (inactive)"
molecule=COCCOCOC(C)(C)[C@H](CCOC(C)=O)O[Si](c1ccccc1)(c1ccccc1)C(C)(C)C recorded_metric=GI50 recorded_measurement="5.75 µM (inactive)"
molecule=CCCCCCCCCCCCCCCC[N+](C)(C)CCl recorded_metric=GI50 recorded_measurement="1.75 µM (inactive)"
molecule="NC(=O)CCC(NC(=O)c1c2ccccc2nc2ccccc12)C(=O)O (stereo not given)" recorded_metric=GI50 recorded_measurement="> 100 µM (inactive)"
molecule=COc1cc([C@H]2c3[nH]c4ccccc4c3C[C@H]3COC(=O)N32)cc(OC)c1O recorded_metric=GI50 recorded_measurement="0.0153 µM (active)"
molecule=C/C(=N\N=C(\N)OB(F)F)c1ccccn1 recorded_metric=GI50 recorded_measurement="46.7 µM (inactive)"
molecule=O=C(/C=C/c1ccccc1Cl)c1ccc(Cl)c(Cl)c1 recorded_metric=GI50 recorded_measurement="26.8 µM (inactive)"
molecule="O=C1NC(Cc2ccc(O)cc2)C(=O)N2CCCC12 (stereo not given)" recorded_metric=GI50 recorded_measurement="> 100 µM (inactive)"
molecule="COC(=O)[C@]1(C)CC[C@]2(C)CC[C@]3(C)C4[C@H]5Oc6c(cc7c(c6C)CCC6[C@@]7(C)CC[C@@]7(C)C8[C@](C)(CCC[C@@]8(C)C(=O)OC)CC[C@]67C)O[C@H]5c5c(cc6c(c5C)O[C@@]5(C)C7=CC=C8[C@@](C)(CC[C@@]9(C)[C@@H]%10C[C@](C)(C(=O)OC)CC[C@]%10(C)CC[C@]89C)C7=CC(=O)[C@@]5(O)O6)[C@]4(C)CC[C@@]3(C)C2C1 (stereo not given in full)" recorded_metric=GI50 recorded_measurement="3.46 µM (inactive)"
molecule=COc1cc(COC(=O)N(C)[C@@H](Cc2ccccc2)C(=O)O)c([N+](=O)[O-])cc1OC recorded_metric=GI50 recorded_measurement="> 100 µM (inactive)"

====

Reported GI50 by item:
Tested on: UACC-62
ASSAY_INFO: NCI tumour cell line growth inhibition, 48 h
Active and inactive are the calls of the source. No stated cut-off is given here; in the data, active = GI50 up to about 1.1 µM and inactive = higher. Residues, ends and D or L forms follow the SMILES beside them. *: point of attachment. Boc = CC(C)(C)OC(=O)*
RECORDED_METRIC: GI50

compound="CC(C)(C)OC(=O)NC(Cc1ccc(O)cc1)C(=O)NC(CCCCN)C(=O)O (stereo not drawn) (Boc-Tyr-Lys-OH; configuration not given here)" recorded_measurement="16.5 µM (inactive)"
compound=Cc1ccc(NC(=O)CCC/C(CC(=O)c2ccc(Br)cc2)=N/NC(=O)CC#N)cc1 recorded_measurement="> 100 µM (inactive)"
compound=COC(=O)c1c[nH]c(=O)[nH]c1=O recorded_measurement="> 100 µM (inactive)"
compound=COc1ccc(OC)c(/C=N/N=C2\C(=O)Nc3c(Cl)cc(Cl)cc32)c1 recorded_measurement="55.6 µM (inactive)"
compound=CC(=O)c1cn(-c2ccc(Cl)cc2)c(=O)c2c(N)n[nH]c12 recorded_measurement="41.7 µM (inactive)"

====

Test system: NCI-H226
ASSAY_INFO: NCI tumour cell line growth inhibition, 48 h
Active and inactive are the calls of the source. Cut-off read from the data, not from the text of the source: active = GI50 up to about 1.1 µM and inactive = higher.
RECORDED_METRIC: GI50

compound=Cn1ccnc1CCc1ccc(Cl)cc1Cl recorded_measurement="> 100 µM (inactive)"
compound=Nc1ccc2nc3n(c2c1)C(=O)c1ccccc1-3 recorded_measurement="> 100 µM (inactive)"
compound=C/N=C(\N=c1/ss/c(=N\C)n1C)N(C)C.[O-][Cl+3]([O-])([O-])O recorded_measurement="45.2 µM (inactive)"
compound=COC(=O)N/N=C(\c1ccccc1)c1ccc(OC)cc1 recorded_measurement="> 100 µM (inactive)"
compound="CC(C)N(C(=O)C12C3C4C5C3C1(C(=O)N(C(C)C)C(C)C)C5C42)C(C)C (stereo unspecified)" recorded_measurement="> 100 µM (inactive)"
compound="COc1cc2nc3n(c2cc1OC)C(O)c1c(Cl)nc(SC)nc1S3 (stereo unspecified)" recorded_measurement="3.35 µM (inactive)"
compound=O=[N+]([O-])c1cccc(-c2ccc([C@H]3CC(c4ccc(Cl)cc4)=NN3)o2)c1 recorded_measurement="25.5 µM (inactive)"
compound=COc1c(O)c(OC)c(C(=O)/C=C/c2ccccc2)c(O)c1OC recorded_measurement="29.4 µM (inactive)"
compound="CC(=O)C1C(=O)C(=O)N(c2cccc(C)c2C)C1=O (stereo unspecified)" recorded_measurement="> 100 µM (inactive)"
compound=CCOP(=O)(OCC)/C(C#N)=C/c1cccn1CC(C)C recorded_measurement="35.7 µM (inactive)"
compound=Cc1nc2ccccc2c(=O)n1NC(=O)c1ccccc1O recorded_measurement="> 100 µM (inactive)"
compound=COc1ccc2cc3[n+](cc2c1OC)CCc1cc(O)c(O)cc1-3 recorded_measurement="> 100 µM (inactive)"
compound="O=C(O)C(Cc1ccccc1)N1C(=O)c2ccccc2C1=O (stereo unspecified)" recorded_measurement="> 100 µM (inactive)"
compound=O=C(/C=C/c1ccc(OCc2ccccc2)cc1)NCc1ccc(C(=O)NCCc2c[nH]c3ccccc23)cc1 recorded_measurement="> 34.6 µM (inactive)"
compound=Cc1ccc2c(c1)CNc1ccc(C)cc1CN2 recorded_measurement="> 100 µM (inactive)"
compound="C=CCc1c(O)c2c(c3oc(=O)cc(C)c13)CC(C)O2 (stereo unspecified)" recorded_measurement="41.5 µM (inactive)"

====

Tested on: SF-295
ASSAY_INFO: NCI tumour cell line growth inhibition, 48 h
Activity calls are given as the source filed them. No stated cut-off is given here; in the data, active = GI50 up to about 1.1 µM and inactive = higher.
Outcomes: YES = active, NO = inactive

compound="CCCCCCCCCCCCCCCCCCN(C)C(COC)COP(=O)([O-])OCC[N+](C)(C)C (stereo not drawn)" category=NO
compound=CC(=O)c1cc2c(s1)C(=O)c1ccsc1C2=O category=YES
compound="O=C1CSC(c2ccccc2[N+](=O)[O-])N1c1ccc(-c2ccc(-n3c(-c4ccccc4)nc4ccccc4c3=O)cc2)cc1 (stereo not drawn)" category=NO

====

Test system: EKVX
ASSAY_INFO: NCI tumour cell line growth inhibition, 48 h
Calls of active or inactive are those of the source. No stated cut-off is given here; in the data, active = GI50 up to about 1.1 µM and inactive = higher.
Reported GI50 by item:
RECORDED_METRIC: GI50

compound=CCOC(=O)/C(C#N)=C1\c2c([nH]c(=S)[nH]c2=O)Oc2ccc3ccccc3c21 recorded_measurement="22.6 µM (inactive)"
compound="CC(C)N(C(=O)C12C3C4C5C3C1(C(=O)N(C(C)C)C(C)C)C5C42)C(C)C (centres undefined)" recorded_measurement="> 100 µM (inactive)"
compound=O=C(NCCCCCCNC(=O)OCCSCCn1cc(C(=O)NC(=O)OCc2ccccc2)c(=O)[nH]c1=O)OCCSCCn1cc(C(=O)NC(=O)OCc2ccccc2)c(=O)[nH]c1=O recorded_measurement="> 100 µM (inactive)"
compound=COc1ccc2nc(-c3ccc(O)cc3)ccc2c1 recorded_measurement="95.5 µM (inactive)"

====

Test system: HOP-92
ASSAY_INFO: NCI tumour cell line growth inhibition, 48 h
The source made the active and inactive calls. Rule as the data show it: active = GI50 up to about 1.1 µM and inactive = higher.
Outcomes: active, inactive

compound=Cc1cs/c(=N\C(P(=O)(O)O)P(=O)(O)O)n1C category=inactive
compound="C=C1C(O)C2OC(=O)C(=C)C2C(OC(=O)/C(C)=C/C)CC2(C)OC2C2OC12 (stereo unspecified)" category=inactive
compound=C=C1C[C@@H](O)[C@@H](Br)C(C)(C)[C@@]12C=CC(=O)CC2 category=inactive
compound=O=C(CNc1nccs1)Nn1cnc2ccc(S(=O)(=O)Nc3nccs3)cc2c1=O category=inactive
compound="Clc1ccc(CSc2ncnc3c2ncn3C2CCCCO2)cc1 (stereo unspecified)" category=inactive
compound="CCOC(=O)N1CCN(P(=O)(Nc2ccc3[nH]c(NC(=O)OC)nc3c2)Oc2ccccc2)CC1 (stereo unspecified)" category=inactive
compound=COC(=O)C(CCCCN)NC(C)=O.Cc1ccc(C(=O)Nc2ccc(S(=O)(=O)O)c3cc(S(=O)(=O)O)cc(S(=O)(=O)O)c23)cc1NC(=O)c1cccc(NC(=O)Nc2cccc(C(=O)Nc3cc(C(=O)Nc4ccc(S(=O)(=O)O)c5cc(S(=O)(=O)O)cc(S(=O)(=O)O)c45)ccc3C)c2)c1 category=inactive
compound="COC(=O)C(CCC1C=CN(S(=O)(=O)c2ccc(C)cc2)C1)/N=C/c1ccccc1 (stereo unspecified)" category=inactive
compound=Nn1c(-c2cccc(Cl)c2)nc2ccccc2c1=O category=inactive
compound=O=S(=O)(O)n1ccnc1 category=inactive
compound=CO[C@@H]1C[C@H](OC(N)=O)[C@@H]2C=C[C@@H]3/C=C(C)/C=C/[C@@H](C)[C@H]([C@H](C)[C@H](O)[C@@H](C)NC(C)=O)OC(=O)/C=C/C=C(C)\C=C\[C@]3(C)[C@@H]2C1 category=active
